assayed system: human ALX receptor (Homo sapiens, UniProt P25090)
Construct: expressed in transfected cells; host or cells: HEK293 (HEK293-hALXR-Gα16)
Sequence (P25090 whole entry): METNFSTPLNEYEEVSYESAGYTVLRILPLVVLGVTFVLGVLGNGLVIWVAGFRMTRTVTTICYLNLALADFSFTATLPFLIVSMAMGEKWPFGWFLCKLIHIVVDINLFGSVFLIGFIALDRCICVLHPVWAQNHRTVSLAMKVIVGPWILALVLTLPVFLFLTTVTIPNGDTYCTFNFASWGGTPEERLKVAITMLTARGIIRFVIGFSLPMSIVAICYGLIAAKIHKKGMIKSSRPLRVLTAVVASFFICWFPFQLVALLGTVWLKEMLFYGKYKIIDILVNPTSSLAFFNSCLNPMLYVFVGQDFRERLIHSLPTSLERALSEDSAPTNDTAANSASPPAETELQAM
test method notes: Intracellular calcium measurements (FLIPR), agonistic activity in HEK293-hALXR-Gα16 cells
Type: cell-based
particulars: Fluo-4 calcium FLIPR, normalized to WKYMVm 10 nM
Description: The ALX receptor and FPRL2 agonistic activities of the compounds of formula (I) are determined in accordance with the following experimental method. Intracellular Calcium Measurements: Cells expressing recombinant human ALX receptor and the G-protein Gα16 (HEK293-hALXR-Gα16) were grown to 80% confluency in Growing Medium (GM). […] Changes in fluorescence were monitored before and after the addition of test compounds at lex=488 nm and lem=540 nm. […]
The following compounds are shown together with reported pEC50 values.
By convention, pEC50 is the negative base-10 log of a molar concentration.

Known results for compounds:
# query: pEC50 of entry CC(NC(=O)C1C(C(=O)Nc2ccc(Br)cc2)C2C=CC1C21CC1)C(=O)N1CCCCC1 (mixture of isomers)
6.93

If you can, please state the reported pEC50 value of O=C(NCCN1CCNC1=O)[C@H]1[C@H](C(=O)Nc2ccc(Br)cc2)[C@@H]2CC[C@H]1C21CC1 (racemic) .
8.62

Looking for the measured pEC50 of CN(C)CCCCCNC(=O)[C@H]1[C@H](C(=O)Nc2ccc(Br)cc2)[C@@H]2C=C[C@H]1C21CC1 (racemic) , can you help?
8.09

Item CCCCNC(=O)[C@H]1[C@H](C(=O)NCCCCN2CCCC2)[C@H]2C=C[C@@H]1C21CC1 (racemic) has what recorded pEC50?
6.44

Which value of pEC50 has been reported for Cc1ccc(NC(=O)[C@H]2[C@H](C(=O)NCCCCN3CCCC3)[C@H]3C=C[C@@H]2C32CC2)nc1 (racemic) in the records?
7.02

New cases:
Which value of pEC50 has been reported for Cc1nc(CC(=O)NC[C@H]2[C@H](C(=O)Nc3ccc(Br)cc3)[C@@H]3C=C[C@H]2C32CC2)c(C)s1 (racemic) in the records?
7.15

Param item = CC(C)Cc1cc(CNC(=O)[C@H]2[C@H](C(=O)NCCCCN3CCCC3)[C@H]3C=C[C@@H]2C32CC2)no1 (racemic) ; retrieve measured pEC50.
7.03

Please look up its pEC50: O=C(NCCCCN1CCCC1)[C@H]1[C@H](C(=O)Nc2ccc(C(F)(F)F)cc2)[C@@H]2C=C[C@H]1C21CC1 (racemic)
8.27

Entry NCc1cccc(CNC(=O)[C@H]2[C@H](C(=O)Nc3ccc(Br)cc3)[C@@H]3C=C[C@H]2C32CC2)c1 (racemic) : reported pEC50 = ?
9.26

Name the reported pEC50 value associated with the compound CC(=O)c1ncc(CNC(=O)[C@H]2[C@H](C(=O)NCCCCN3CCCC3)[C@H]3C=C[C@@H]2C32CC2)s1 (racemic)
6.00

pEC50 for O=C(NCCCn1ccnc1)[C@H]1[C@H](C(=O)Nc2ccc(Br)cc2)[C@@H]2CC[C@H]1C21CC1 (racemic) ?
8.39

Returns the measured pEC50 for the input compound. Input: NCCCCCNC(=O)C1C(C(=O)Nc2ncc(Br)s2)C2C=CC1C21CC1 (stereo not shown)
9.21
